Source listed as patent US20230339970A1.

In this section, each of the molecules is paired with its reported IC50.
- MEASUREMENT_TARGET: human CSNK1D (Homo sapiens, UniProt P48730)
- Sequence (P48730 whole entry): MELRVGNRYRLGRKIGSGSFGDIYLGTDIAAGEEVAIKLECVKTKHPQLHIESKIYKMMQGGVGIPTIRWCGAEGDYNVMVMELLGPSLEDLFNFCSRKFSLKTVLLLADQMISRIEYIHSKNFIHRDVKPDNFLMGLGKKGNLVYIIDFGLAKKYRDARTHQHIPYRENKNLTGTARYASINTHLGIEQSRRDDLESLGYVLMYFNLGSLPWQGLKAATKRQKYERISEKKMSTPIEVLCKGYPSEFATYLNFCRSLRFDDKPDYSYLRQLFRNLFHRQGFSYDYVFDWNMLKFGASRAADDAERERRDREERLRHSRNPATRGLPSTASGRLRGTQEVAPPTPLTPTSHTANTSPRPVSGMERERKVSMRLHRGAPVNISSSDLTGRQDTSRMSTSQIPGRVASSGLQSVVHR
- TEST_SUMMARY: Whole Cell nBRET CSNK1D Binding Assay
- MEASUREMENT_PARAMETERS: living CHO cells stably expressing human CSNK1D tagged with nanoluciferase; NanoBret tracer 130 nM; 2 hours at 37 C
Supply the numeric figure in nM, leaving out any unit text.

See these solved cases before continuing.
>>> df
                                   molecule                        measurement_target  measured_metric  endpoint_result
0  CC1(C)COCc2c(-c3ccnc4[nH]ncc34)c(-c3ccc(F)cn3)nn21  human CSNK1D (Homo sapiens, UniProt P48730)             IC50             3410
1  CC1(C)Cn2nc(-c3ccc(F)cn3)c(-c3ccnc(NC(=O)C4CC4(F)F)c3)c2CO1 (stereo not shown)  human CSNK1D (Homo sapiens, UniProt P48730)             IC50                6

Could you now consider this next molecule?
// query Name the reported IC50 value associated with the molecule `[2H]C([2H])([2H])C1(C([2H])([2H])[2H])Cn2nc(-c3ccc(F)cn3)c(-c3c(F)c(C)nc4[nH]nc(C)c34)c2CO1`
// result 69

###

- MEASUREMENT_TARGET: human recombinant GST cleaved CSNK1D (Homo sapiens, UniProt P48730)
- Construct: GST (cleaved yes)
- Sequence (P48730 whole entry): as above
- TEST_SUMMARY: Purified Enzyme Assay (ADP-Glo CSNK1D Kinase Assay)
- MEASUREMENT_PARAMETERS: 2 nM CSNK1D; peptide substrate 150 μM; ATP 20 μM; 45 minutes at room temperature
MEASURED_METRIC: pIC50
// scale note: pIC50 = -log10(conc_M); give the bare number

COMPOUND	MEASUREMENT_TARGET	pIC50
COCCC1(C)CCc2c(-c3ccnc4[nH]ncc34)c(-c3ccc(F)cn3)nn2C1 (single isomer, unassigned) [Example 318]	human recombinant GST cleaved CSNK1D (Homo sapiens, UniProt P48730)	8.52
Cc1cc(-c2c(-c3ccc(F)cn3)nn3c2CO[C@@H](C)C3)c2cn[nH]c2n1 (single isomer, unassigned) [Example 89]	human recombinant GST cleaved CSNK1D (Homo sapiens, UniProt P48730)	8.05
Cc1n[nH]c2nccc(-c3c(-c4ccc(F)cc4)nn4c3OCC3(C4)CC3(F)F)c12 (single isomer, unassigned) [Example 473]	human recombinant GST cleaved CSNK1D (Homo sapiens, UniProt P48730)	8.70
Cn1ncc2nccc(-c3c(-c4ccc(F)cn4)nn4c3COC(C)(C)C4)c21 [Example 159]	human recombinant GST cleaved CSNK1D (Homo sapiens, UniProt P48730)	5.93
Clc1ccc(-c2nn3c(c2-c2ccnc4[nH]ncc24)COCC3)cc1 [Example 67]	human recombinant GST cleaved CSNK1D (Homo sapiens, UniProt P48730)	7.70
[2H]C([2H])([2H])C1(C([2H])([2H])[2H])Cn2nc(-c3ccc(F)cn3)c(-c3cc(C)nc4[nH]nc(Cl)c34)c2CO1 [Example 405]	human recombinant GST cleaved CSNK1D (Homo sapiens, UniProt P48730)	8.30
Fc1ccc(-c2nn3c(c2-c2ccn4nccc4c2)OCC2(CC2)C3)cc1 [Example 466]	human recombinant GST cleaved CSNK1D (Homo sapiens, UniProt P48730)	7.92
COc1cccc(-c2nn3c(c2-c2ccnc4[nH]ncc24)COC(C)(C)C3)n1 [Example 161]	human recombinant GST cleaved CSNK1D (Homo sapiens, UniProt P48730)	7.59
CCC(=O)Nc1cc(-c2c(-c3ccc(F)cc3)nn3c2OCC2(CC2)C3)ccn1 [Example 455]	human recombinant GST cleaved CSNK1D (Homo sapiens, UniProt P48730)	9.00
[2H]C([2H])([2H])C1(C([2H])([2H])[2H])Cn2nc(-c3ccc(F)cn3)c(-c3ccnc4[nH]nc(F)c34)c2CO1 [Example 398]	human recombinant GST cleaved CSNK1D (Homo sapiens, UniProt P48730)	8.52

// query Query: pIC50; subject: Cc1n[nH]c2nccc(-c3c(-c4ccc(F)cc4)nn4c3COC(C(F)(F)F)C4)c12 (single isomer, unassigned) [Example 372]
// result 7.38

// query Subsequent entry: CC1(CF)CCc2c(-c3ccncc3)c(-c3ccc(F)cn3)nn2C1 (single isomer, unassigned) [Example 284]
// result 8.22

// query // same read-out, input: Cc1cc(-c2c(-c3ccc(F)cn3)nn3c2CC2(C3)CC2(F)F)c2cn[nH]c2n1 (single isomer, unassigned) [Example 261]
// result 7.20

// query Continue with [2H]C([2H])([2H])[C@@]1(C(F)(F)F)Cn2nc(-c3ccc(F)cn3)c(-c3ccnc4[nH]nc(C)c34)c2CO1 (single isomer, unassigned) [Example 426]
// result 7.77
